Biological target: UniProt:P11388
Test: Inhibition of human DNA topoisomerase 2-mediated relaxation of supercoiled pUC19 DNA at 50 uM after 2 hrs using ethidium bromide staining by agarose gel electrophoresis
The source made the active and inactive calls. The rule behind the calls is not given here.
Assign a class; possible classes are True = active, False = inactive

- Cl.Cl.NCCCC[C@H](N)C(=O)OCCn1c2c(c3ccccc3c1=O)C(=O)c1ccccc1-2: True
- Cl.Cl.NCCCCC(N)C(=O)OCCCn1c2c(c3ccccc3c1=O)C(=O)c1ccccc1-2 (racemic): False
- NCCCC[C@@H](N)C(=O)OCCCn1c2c(c3ccccc3c1=O)C(=O)c1ccccc1-2: False

How did this test come out for Cl.Cl.NCCCCC(N)C(=O)OCCn1c2c(c3ccccc3c1=O)C(=O)c1ccccc1-2 (racemic) ? True

How did this test come out for Cl.Cl.NCCCC[C@H](N)C(=O)OCCCn1c2c(c3ccccc3c1=O)C(=O)c1ccccc1-2 ? False

----------
Tested on: Calf thymus DNA
Test: Binding affinity to calf thymus DNA assessed as change in melting temperature at drug/DNA ratio 0.25
Assay type: nucleic-acid assay
Conditions: Bos taurus
ATTRIBUTE_MEASURED: ΔTm (°C)

Sample records with ΔTm:
- Cl.Cl.NCCCC[C@H](N)C(=O)NCCCn1c2c(c3ccccc3c1=O)C(=O)c1ccccc1-2: 20
- Cl.Cl.N=C(N)NCCC[C@H](N)C(=O)NCCn1c2c(c3ccccc3c1=O)C(=O)c1ccccc1-2: 13.6

P = NCCCC[C@@H](N)C(=O)OCCn1c2c(c3ccccc3c1=O)C(=O)c1ccccc1-2
Q = Cl.Cl.NCCCCC(N)CNCCn1c2c(c3ccccc3c1=O)C(=O)c1ccccc1-2 (stereo not given)
R = Cl.N[C@H](Cc1cnc[nH]1)C(=O)OCCCn1c2c(c3ccccc3c1=O)C(=O)c1ccccc1-2
In this exercise, place the 3 compounds in ascending sequence of their recorded ΔTm. Enter labels, ranked according to the request. R, P, Q
(R: 4.7 °C, P: 10.4 °C, Q: 23.8 °C)

----------
Target: DNA topoisomerase 2-alpha (Homo sapiens) (UniProt P11388)
Sequence (P11388 whole entry): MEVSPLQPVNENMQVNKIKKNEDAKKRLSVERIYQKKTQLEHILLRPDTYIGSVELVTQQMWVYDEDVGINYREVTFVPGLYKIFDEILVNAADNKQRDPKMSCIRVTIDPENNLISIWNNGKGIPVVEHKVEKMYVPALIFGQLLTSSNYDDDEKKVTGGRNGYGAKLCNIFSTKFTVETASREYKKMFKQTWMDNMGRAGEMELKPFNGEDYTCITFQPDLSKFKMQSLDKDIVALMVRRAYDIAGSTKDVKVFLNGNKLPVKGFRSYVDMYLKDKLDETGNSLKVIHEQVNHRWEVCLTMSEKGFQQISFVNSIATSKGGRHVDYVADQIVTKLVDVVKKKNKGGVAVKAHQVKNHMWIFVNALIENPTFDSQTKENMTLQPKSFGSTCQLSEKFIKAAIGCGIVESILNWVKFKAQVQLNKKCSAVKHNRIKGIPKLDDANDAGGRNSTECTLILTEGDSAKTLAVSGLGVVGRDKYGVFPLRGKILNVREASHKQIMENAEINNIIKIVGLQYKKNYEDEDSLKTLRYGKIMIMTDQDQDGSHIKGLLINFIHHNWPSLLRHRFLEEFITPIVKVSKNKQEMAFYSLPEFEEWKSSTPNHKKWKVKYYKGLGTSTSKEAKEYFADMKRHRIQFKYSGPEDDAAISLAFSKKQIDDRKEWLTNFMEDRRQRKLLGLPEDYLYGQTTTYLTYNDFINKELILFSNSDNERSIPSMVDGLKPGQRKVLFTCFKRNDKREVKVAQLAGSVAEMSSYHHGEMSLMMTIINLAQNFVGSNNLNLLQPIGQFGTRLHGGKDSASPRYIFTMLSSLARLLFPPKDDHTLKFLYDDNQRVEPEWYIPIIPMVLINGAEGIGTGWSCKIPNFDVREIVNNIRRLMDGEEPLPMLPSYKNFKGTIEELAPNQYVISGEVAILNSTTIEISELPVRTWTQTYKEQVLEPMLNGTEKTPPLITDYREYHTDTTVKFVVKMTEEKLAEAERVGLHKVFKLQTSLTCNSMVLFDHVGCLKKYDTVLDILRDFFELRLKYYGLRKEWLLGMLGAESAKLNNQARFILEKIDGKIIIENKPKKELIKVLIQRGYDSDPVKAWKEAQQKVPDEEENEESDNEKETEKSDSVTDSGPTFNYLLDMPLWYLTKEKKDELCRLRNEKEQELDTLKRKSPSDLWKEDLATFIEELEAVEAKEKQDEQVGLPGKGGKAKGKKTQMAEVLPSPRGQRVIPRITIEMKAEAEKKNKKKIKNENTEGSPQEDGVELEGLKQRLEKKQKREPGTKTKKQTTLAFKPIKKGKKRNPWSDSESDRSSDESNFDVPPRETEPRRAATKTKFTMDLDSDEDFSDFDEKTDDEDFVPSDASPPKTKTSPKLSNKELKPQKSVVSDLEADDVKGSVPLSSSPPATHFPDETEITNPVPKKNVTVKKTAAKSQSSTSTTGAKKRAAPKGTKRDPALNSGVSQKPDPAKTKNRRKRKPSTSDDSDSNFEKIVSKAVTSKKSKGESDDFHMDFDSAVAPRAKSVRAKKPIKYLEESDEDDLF
Experiment: Inhibition of human DNA topoisomerase 2-mediated relaxation of supercoiled pUC19 DNA at 20 uM after 2 hrs using ethidium bromide staining by agarose gel electrophoresis
Calls of active or inactive are those of the source. No cut-off for these calls is given here.
Assign a class; possible classes are active, inactive

Known results for compounds:
* NCCCC[C@@H](N)C(=O)OCCCn1c2c(c3ccccc3c1=O)C(=O)c1ccccc1-2 | inactive
* Cl.Cl.NCCCCC(N)C(=O)OCCCn1c2c(c3ccccc3c1=O)C(=O)c1ccccc1-2 (racemic) | inactive
* Cl.Cl.NCCCC[C@H](N)C(=O)OCCn1c2c(c3ccccc3c1=O)C(=O)c1ccccc1-2 | active
* Cl.Cl.NCCCCC(N)C(=O)OCCn1c2c(c3ccccc3c1=O)C(=O)c1ccccc1-2 (racemic) | active

Now consider the entry below.
How did this test come out for Cl.Cl.NCCCC[C@H](N)C(=O)OCCCn1c2c(c3ccccc3c1=O)C(=O)c1ccccc1-2 ? inactive

----------
Test system: Calf thymus DNA
Test: Binding affinity to calf thymus DNA assessed as change in melting temperature at drug/DNA ratio 0.25
Format: nucleic-acid assay
Conditions: Bos taurus
ATTRIBUTE_MEASURED: ΔTm (°C)

- NCCCC[C@@H](N)C(=O)OCCCn1c2c(c3ccccc3c1=O)C(=O)c1ccccc1-2: 15.2
- NCC(=O)OCCCn1c2c(c3ccccc3c1=O)C(=O)c1ccccc1-2: 5.5
- Cl.N[C@@H](Cc1cnc[nH]1)C(=O)OCCCn1c2c(c3ccccc3c1=O)C(=O)c1ccccc1-2: 2.3

I = Cl.Cl.NCCCCC(N)C(=O)OCCn1c2c(c3ccccc3c1=O)C(=O)c1ccccc1-2 (racemic)
II = Cl.Cl.NCCCCC(N)CNCCCn1c2c(c3ccccc3c1=O)C(=O)c1ccccc1-2 (stereo not given)
III = Cl.N[C@H](Cc1cnc[nH]1)C(=O)NCCCn1c2c(c3ccccc3c1=O)C(=O)c1ccccc1-2
In this exercise, place the 3 molecules in ascending sequence of their recorded ΔTm. Enter labels, ranked according to the request. III, I, II
(III: 5.5 °C, I: 9 °C, II: 26.7 °C)

a = Cl.NCCNCCn1c2c(c3ccccc3c1=O)C(=O)c1ccccc1-2
b = Cl.N[C@@H](Cc1cnc[nH]1)C(=O)NCCCn1c2c(c3ccccc3c1=O)C(=O)c1ccccc1-2
c = Cl.N[C@@H](Cc1cnc[nH]1)C(=O)NCCn1c2c(c3ccccc3c1=O)C(=O)c1ccccc1-2
d = Cl.Cl.N=C(N)NCCC[C@H](N)C(=O)NCCCn1c2c(c3ccccc3c1=O)C(=O)c1ccccc1-2
In this exercise, place the 4 molecules in ascending sequence of their recorded ΔTm. Enter labels, ranked according to the request. c, b, a, d
(c: 3.4 °C, b: 7.9 °C, a: 11.4 °C, d: 21 °C)

a = Cl.NCC(=O)OCCn1c2c(c3ccccc3c1=O)C(=O)c1ccccc1-2
b = Cl.Cl.NCCCCC(N)C(=O)NCCn1c2c(c3ccccc3c1=O)C(=O)c1ccccc1-2 (racemic)
Lower value for measured ΔTm? Options: a , b Label of pick, please. a
